Tested on: MDA-MB-231 breast (STAT3-dependent) cancer cell line
Run Description: MTT cell viability assay, MDA-MB-231
Type: cell-based, human
Measurement Parameters: STAT3-null A4 versus STAT3-dependent MDA-MB-231
Could you please report measured Selectivity ratio for the items listed next?
One number for each entry.

Known Selectivity ratio results, listed for orientation:
> print(dat)
                         compound.structure  numeric.result
1  COC(=O)c1ccc(N(C)S(=O)(=O)c2cc(C(=O)Nc3ccc(CN4CCOCC4)cc3)sc2Br)cc1            4.34
2  COC(=O)c1ccc(N(C)S(=O)(=O)c2cc(C(=O)Nc3ccc(OCCN4CCOCC4)cc3)sc2-c2ccc(N3CCN(C)CC3)nc2)cc1            8.84
3  COC(=O)c1ccc(N(C)S(=O)(=O)c2cc(C(=O)Nc3ccc(OCCN4CCOCC4)cc3)sc2-c2ccc(C(=O)N3CCOCC3)cc2)cc1           19.28
4  COC(=O)c1ccc(N(C)S(=O)(=O)c2cc(C(=O)NCc3ccc(CN4CCCCC4)cc3)sc2-c2ccc(N3CCCCC3)cc2)cc1           39.76
5  COC(=O)c1ccc(N(C)S(=O)(=O)c2cc(C(=O)NCc3ccc(CN4CCCCC4)cc3)sc2-c2ccc(C#N)cc2)cc1            2.76

Would you mind giving Selectivity ratio for every compound in the list below?
1. COC(=O)c1ccc(N(C)S(=O)(=O)c2cc(C(=O)Nc3ccc(OCCN4CCOCC4)cc3)sc2-c2ccnc(N3CCNCC3)c2)cc1
2. COC(=O)c1ccc(N(C)S(=O)(=O)c2cc(C(=O)NCc3ccc(CN4CCCCC4)cc3)sc2Br)cc1
3. COC(=O)c1ccc(NC(=O)c2cc(S(=O)(=O)N(C)c3ccc(C(=O)OC)cc3)c(Br)s2)cc1

5.40
21.16
6.70
